Answer each item with its documented DC50.
# EXPERIMENTAL_SYSTEM: BCL-XL (Homo sapiens)
# Construct: endogenous in cells; host or cells: MOLT-4
# ASSAY_DETAILS: Bcl-xL ELISA degradation in MOLT-4 cells, 6 h
# Type: cell-based
# CONDITION_LABEL: read-out: Bcl-xL ELISA in MOLT-4 degradation 6 h: Mean external-Abs DC50

Looking up `Cc1ncsc1-c1ccc([C@H](C)NC(=O)[C@@H]2C[C@@H](O)CN2C(=O)[C@@H](c2cc(OC3CCN(CCCS(=O)(=O)NC(=O)c4nc(N5CCc6cccc(C(=O)Nc7nc8ccccc8s7)c6C5)ccc4-c4cnn(CC5CCCCC5)c4C)CC3)no2)C(C)C)cc1` , I see its DC50 listed as 10 to 100 nM

Looking up `Cc1cc(N(C)c2ccc(-c3cnn(CC45CC6CC(CC(C6)C4)C5)c3C)c(C(=O)NS(=O)(=O)CCCCCC(=O)N[C@H](C(=O)N3C[C@H](O)C[C@H]3C(=O)NCc3ccc4c(c3)c(C)nn4C)C(C)(C)C)n2)nnc1Nc1nc2ccccc2s1` , I see its DC50 listed as < 10 nM

Looking up `Cc1ncsc1-c1ccc([C@H](C)NC(=O)[C@@H]2C[C@@H](O)CN2C(=O)[C@@H](NC(=O)CCCCCCC(=O)N2CCN(C[C@]3(C)CCC(c4ccc(Cl)cc4)=C(CN4CCN(c5ccc(C(=O)NS(=O)(=O)c6ccc(N[C@H](CCN7CCOCC7)CSc7ccccc7)c(S(=O)(=O)C(F)(F)F)c6)cc5)CC4)C3)CC2)C(C)(C)C)cc1` , I see its DC50 listed as 10 to 100 nM

Looking up `Cc1ncsc1-c1ccc(CNC(=O)[C@@H]2C[C@@H](O)CN2C(=O)[C@@H](NC(=O)CCCc2cc(F)cc(S(=O)(=O)NC(=O)c3nc(N4CCc5cccc(C(=O)Nc6nc7ccccc7s6)c5C4)ccc3-c3cnn(CC4CCCCC4)c3C)c2)C(C)(C)C)cc1` , I see its DC50 listed as < 10 nM

Looking up `Cc1ncsc1-c1ccc([C@H](C)NC(=O)[C@@H]2C[C@H](O)CN2C(=O)[C@@H](NC(=O)CCc2ccc(S(=O)(=O)NC(=O)c3nc(N4CCc5cccc(C(=O)Nc6nc7ccccc7s6)c5C4)ccc3-c3cnn(CC4CCCCC4)c3C)cc2)C(C)(C)C)cc1` , I see its DC50 listed as 100 to 500 nM

Looking up Cc1ncsc1-c1ccc([C@H](C)NC(=O)[C@@H]2C[C@@H](O)CN2C(=O)[C@@H](NC(=O)C2CCC(O)(c3ccc(S(=O)(=O)NC(=O)c4nc(N5CCc6cccc(C(=O)Nc7nc8ccccc8s7)c6C5)ccc4-c4cnn(CC5CCCCC5)c4C)cc3)CC2)C(C)(C)C)cc1 (some centres unmarked) , I see its DC50 listed as > 1000 nM

Looking up `C#Cc1ccc(CNC(=O)[C@@H]2C[C@@H](O)CN2C(=O)[C@H](NC(=O)CCCCCS(=O)(=O)NC(=O)c2nc(N3CCc4cccc(C(=O)Nc5nc6ccccc6s5)c4C3)ccc2-c2cnn(CC3CCCCC3)c2C)C(C)(C)CCOP(=O)(O)O)cc1` , I see its DC50 listed as 100 to 500 nM

Looking up `Cc1ncsc1-c1ccc([C@H](C)NC(=O)[C@@H]2C[C@@H](O)CN2C(=O)[C@@H](NC(=O)C2CCN(c3ccc(S(=O)(=O)NC(=O)c4nc(N5CCc6cccc(C(=O)Nc7nc8ccccc8s7)c6C5)ccc4-c4cnn(CC5CC5)c4C)cc3)CC2)C(C)(C)C)cc1` , I see its DC50 listed as 10 to 100 nM

----------
Answer each item with its documented Dmax.
# EXPERIMENTAL_SYSTEM: BCL-XL (Homo sapiens, UniProt Q07817)
# Construct: endogenous in cells; host or cells: MOLT-4
# Sequence (Q07817 whole entry): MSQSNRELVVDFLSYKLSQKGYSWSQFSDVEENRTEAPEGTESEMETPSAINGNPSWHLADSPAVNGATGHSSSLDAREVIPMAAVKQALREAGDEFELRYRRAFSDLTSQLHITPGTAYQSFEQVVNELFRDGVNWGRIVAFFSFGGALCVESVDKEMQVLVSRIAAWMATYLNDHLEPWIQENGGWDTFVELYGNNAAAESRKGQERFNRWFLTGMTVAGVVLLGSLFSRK
# ASSAY_DETAILS: BCL-XL degradation assay, western blot in MOLT-4 cells, 16 h
# Type: cell-based
# CONDITION_LABEL: western blot, MOLT-4 cells, 16 h; read-out: Bcl-xL WB in MOLT-4 degradation 16 h: Average Dmax %

Looking up `C#Cc1ccc([C@H](CO)NC(=O)[C@@H]2C[C@@H](O)CN2C(=O)[C@@H](NC(=O)C2CCN(c3ccc(S(=O)(=O)NC(=O)c4nc(N5CCc6cccc(C(=O)Nc7nc8ccccc8s7)c6C5)ccc4-c4cnn(CC5CCCCC5)c4C)cc3)CC2)C(C)(C)C)cc1` , I see its Dmax listed as > 75%

Looking up `Cc1ncsc1-c1ccc([C@H](C)NC(=O)[C@@H]2C[C@@H](O)CN2C(=O)[C@@H](NC(=O)C2(F)CC2)C(C)(C)C)c(OCC(=O)N2CCN(CC[C@H](CSc3ccccc3)Nc3ccc(S(=O)(=O)NC(=O)c4ccc(N5CCN(CC6=C(c7ccc(Cl)cc7)CCC(C)(C)C6)CC5)cc4)cc3S(=O)(=O)C(F)(F)F)CC2)c1` , I see its Dmax listed as 50 to 75%

Looking up Cc1ncsc1-c1ccc([C@H](C)NC(=O)[C@@H]2C[C@@H](O)CN2C(=O)C(c2cc(OCC3CCN(CCNC(=O)c4nc(N5CCc6cccc(C(=O)Nc7nc8ccccc8s7)c6C5)ccc4-c4cnn(CC5CCCCC5)c4C)CC3)no2)C(C)C)cc1 (stereo partly shown) , I see its Dmax listed as < 50%

Looking up Cc1ncsc1-c1ccc(CNC(=O)[C@@H]2C[C@@H](O)CC2C(=O)[C@@H](NC(=O)C2(F)CC2)C(C)(C)C)c(OCCCCCCNC(=O)c2nc(N3CCc4cccc(C(=O)Nc5nc6ccccc6s5)c4C3)ccc2-c2cnn(CC3CCCCC3)c2C)c1 (stereo partly shown) , I see its Dmax listed as 50 to 75%

----------
# EXPERIMENTAL_SYSTEM: BCL-XL (Homo sapiens, UniProt Q07817)
# Construct: endogenous in cells; host or cells: MOLT-4
# ASSAY_DETAILS: BCL-XL degradation assay, western blot in MOLT-4 cells, 16 h
# Assay type: cell-based
# CONDITION_LABEL: western blot, MOLT-4 cells, 16 h; read-out: Bcl-xL WB in MOLT-4 degradation 16 h: Average Dmax %
Answer each item with its documented Dmax.

Looking up Cc1ncsc1-c1ccc([C@H](C)NC(=O)[C@@H]2C[C@@H](O)CN2C(=O)[C@@H](NC(=O)CCCCCC(=O)N2CCN(CC[C@H](CSc3ccccc3)Nc3ccc(S(=O)(=O)NC(=O)c4ccc(N5CCC(C)(C)CC5)cc4)cc3S(=O)(=O)C(F)(F)F)CC2)C(C)(C)C)cc1 [I-392] , I see its Dmax listed as < 50%

Looking up Cc1ncsc1-c1ccc([C@H](C)NC(=O)[C@@H]2C[C@@H](O)CN2C(=O)[C@@H](c2cc(N3CC4(CN(c5ccc(S(=O)(=O)NC(=O)c6nc(N7CCc8cccc(C(=O)Nc9nc%10ccccc%10s9)c8C7)ccc6-c6cnn(CC7CCCCC7)c6C)cc5)C4)C3)no2)C(C)C)cc1 [I-226] , I see its Dmax listed as > 75%

Looking up Cc1ncsc1-c1ccc([C@H](C)NC(=O)[C@@H]2C[C@@H](O)CN2C(=O)[C@@H](c2cc(N3CC(N4CCC(NC(=O)c5nc(N6CCc7cccc(C(=O)Nc8nc9ccccc9s8)c7C6)ccc5-c5cnn(CC6CCCCC6)c5C)CC4)C3)no2)C(C)C)cc1 [I-236] , I see its Dmax listed as > 75%

Looking up Cc1ncsc1-c1ccc([C@H](C)NC(=O)[C@@H]2C[C@@H](O)CN2C(=O)[C@@H](NC(=O)CCCCCCCCC(=O)N(C)CC#Cc2ccc(OCCCc3sc(N4CCc5cccc(C(=O)Nc6nc7ccccc7s6)c5C4)nc3C(=O)O)c(F)c2)C(C)(C)C)cc1 [I-384] , I see its Dmax listed as > 75%

----------
# EXPERIMENTAL_SYSTEM: BCL-XL (Homo sapiens, UniProt Q07817)
# Construct: endogenous in cells; host or cells: MOLT-4
# ASSAY_DETAILS: BCL-XL degradation assay, western blot in MOLT-4 cells, 16 h
# Format: cell-based
# CONDITION_LABEL: western blot, MOLT-4 cells, 16 h; read-out: Bcl-xL WB in MOLT-4 degradation 16 h: Average Dmax %
Answer each item with its documented Dmax.

Looking up Cc1ncsc1-c1ccc(CNC(=O)[C@@H]2C[C@@H](O)CN2C(=O)[C@H](c2cc(N3CC4(CN(CCCC(=O)N(C)CC#Cc5ccc(OCCCc6ccc(N7CCc8cccc(C(=O)Nc9nc%10ccccc%10s9)c8C7)nc6C(=O)O)c(F)c5)C4)C3)no2)C(C)C)cc1 [I-181] , I see its Dmax listed as > 75%

Looking up Cc1ncsc1-c1ccc(CNC(=O)[C@@H]2C[C@@H](O)CN2C(=O)[C@@H](NC(=O)C2(F)CC2)C(C)(C)C)c(OCCCCCCCC(=O)NCCOc2ccc(C(=O)Nc3nc4ccccc4s3)c3c2CCN(c2ccc(-c4cnn(CC5CCCCC5)c4C)c(C(=O)O)n2)C3)c1 [I-48] , I see its Dmax listed as 50 to 75%
